System: NCI-H226
assayOverview: NCI tumour cell line growth inhibition, 48 h
Activity calls are given as the source filed them. No stated cut-off is given here; in the data, active = GI50 up to about 1.1 µM and inactive = higher.
Would you mind answering with one of these outcomes? true (1) (active), false (0) (inactive)

These recorded examples may help you get a feel for the data.
CC(=O)[C@]1(O)Cc2c(O)c3c(c(O)c2C(OC2OC(C)C(O)C(O)C2F)C1)C(=O)c1ccccc1C3=O (some centres not stated): true (1)
C[B@@-]1(c2ccc(C(F)(F)F)cc2)N[C@@H](Cc2ccccc2)C(=O)O1: false (0)

Request: # outcome recorded in this test, key = COc1cc(NCC2COc3c(ccc(OC)c3OC)C2=O)c([N+](=O)[O-])cc1OC (configuration not stated)
Result: false (0)

Request: Also check `O=c1c2cccnc2ncn1CCCN1CCCCC1`
Result: false (0)

Request: Also check COCCN1C(=O)C2c3[nH]c4ccccc4c3C3CCC(C(C)(C)C)CC3C2C1=O (configuration not stated)
Result: false (0)

Request: Also check `Cc1nc2c(=O)[nH]c(=O)n(C)c2[nH]c1=O.c1ccncc1`
Result: false (0)
